test system: DU-145 prostate; experiment: NCI tumour cell line growth inhibition, 48 h
Recorded endpoint: GI50

O=C(Nc1ccc(-n2cc(-c3ccncc3)c(-c3ccc(Cl)c(O)c3)n2)cc1)c1ccc(Cl)c(Cl)c1: > 100 µM
CC(C)(C)OC(=O)CC(S(=O)(=O)c1ccccc1)S(=O)(=O)c1ccccc1: 15.2 µM
Cn1cc(C2=C(c3cccc([N+](=O)[O-])c3)C(=O)NC2=O)c2ccccc21: 12.7 µM
COc1cc2c(cc1OC)C(Sc1ccc(Cl)cc1)c1c(nc(N)c(C#N)c1N)O2 (stereo not given): 1.67 µM

Now consider the entry below.
Q. // fetch GI50 for OCCN1CCCN(CCCN2c3ccccc3Sc3ccc(C(F)(F)F)cc32)CC1 ; system: DU-145 prostate
A. 5.61 µM
